# PROTOCOL_TEXT: Selectivity index, ratio of CC50 for Cytotoxicity against African green monkey Vero E6 cells to IC50 for Antiplasmodial activity against CQ-resistant Plasmodium falciparum W2
# Type: toxicity, cell-based
# MEASUREMENT_CONTEXT: read-out: Ratio CC50/IC50
QUANTITY_NAME: selectivity ratio
// return just the number, without any unit appended

Would you please look over these solved cases?
| SMILES_CODE | ENDPOINT_VALUE |
| --- | --- |
| Clc1ccc(Oc2ccc(Cl)cc2OCCCCCn2cc(COc3cc(Cl)ccc3Oc3ccc(Cl)cc3Cl)nn2)c(Cl)c1 | 2.6 |
| Clc1ccc(Oc2ccc(Cl)cc2OCCCCOc2cc(Cl)ccc2Oc2ccc(Cl)cc2Cl)c(Cl)c1 | 4.5 |
| Clc1ccc(Oc2ccc(Cl)cc2OCCn2cc(COc3cc(Cl)ccc3Oc3ccc(Cl)cc3Cl)nn2)c(Cl)c1 | 4.9 |

Here is the next item to consider.
The reported value for Clc1ccc(Oc2ccc(Cl)cc2OCCCCCCn2cc(COc3cc(Cl)ccc3Oc3ccc(Cl)cc3Cl)nn2)c(Cl)c1 in terms of selectivity ratio is 3.2
